// provenance: the supplement of paper PMC5412046

Reported viability by item:
test system: SB.mhdgc-1; assay: viability at highest tested concentration (MAXR) relative to DMSO; higher = less cytotoxic; conditions: SB.mhdgc-1 (hereditary c.1380delA CDH1 gastric cancer)
Structures can show the parent of a compound that is named as a salt.

molecule | viability
CC/1=C(\CCN2CCC(CC2)C3=NOC4=C3C=CC(=C4)F)C(=O)N/5CCCCC5=N1 (top concentration 46.0829 µM) | 65.9%
CO[C@@H]1[C@@H](OC(N)=O)[C@@H](O)[C@H](OC2=CC=C3\C(=C(NC(=O)C4=CC=C([O-])C(=C4)CC=C(C)C)/C(=O)OC3=C2C)O)OC1(C)C [Novobiocin sodium] (top concentration 46.0829 µM) | 115%
CC12CC3CC(C)(C1)CC(N)(C3)C2 [Memantine hydrochloride] (top concentration 46.0829 µM) | 3.41%
C/C(=C\c1csc(C)n1)[C@@H]1C[C@@H]2O[C@@H]2CCC[C@H](C)[C@H](O)[C@@H](C)C(=O)C(C)(C)[C@@H](O)CC(=O)O1 [Epothilone A] (top concentration 46.0829 µM) | 52.1%

[in] Assign viability to the following record: CCCCC(C=O)NC(=O)C(CC(C)C)NC(=O)OCc1ccccc1 (centres undefined) [Calpeptin] (top concentration 46.0829 µM)
[out] 98.5%

[in] Assign viability to the following record: COc1cc([C@@H]2c3cc4c(cc3[C@H](O)[C@H]3COC(=O)[C@@H]23)OCO4)cc(OC)c1OC [Picropodophyllin] (top concentration 46.0829 µM)
[out] 45.9%

[in] Assign viability to the following record: Cc1cccc(Nc2nc(-c3ccncc3)cs2)c1 (top concentration 46.0829 µM)
[out] 40.5%

[in] Assign viability to the following record: O=C1N\2CCC3=C([NH]C4=C3C=CC=C4)C2=N/C5=CC=CC=C15 [Rutaecarpine] (top concentration 46.0829 µM)
[out] 33.8%

[in] Assign viability to the following record: COc1ccc(-n2nc(C(N)=O)c3c2C(=O)N(c2ccc(N4CCCCC4=O)cc2)CC3)cc1 [Apixaban] (top concentration 46.0829 µM)
[out] 122%

---

tested on: SB.msgc-1; experiment: area under the dose-response curve of % viability (trapezoidal, 11 doses) (% viability x log10 concentration); higher = less cytotoxic; details: SB.msgc-1 (sporadic gastric cancer)
Cut-off 500 on area under the dose-response curve, inclusive. At or above means yes; below means no.

[in] Assess whether reported area under the dose-response curve for C[C@]12COC(=O)C[C@@H]1CC[C@@H]1[C@@H]2CC[C@@]2(C)[C@H]1CC[C@]2(C)O [Oxandrolone] (top concentration 46.0829 µM) sits at 500 or higher.
[out] yes

[in] Assess whether reported area under the dose-response curve for O=C1CCC(N2C(=O)c3ccccc3C2=O)C(=O)N1 (stereo unspecified) [Thalidomide] (top concentration 46.0829 µM) sits at 500 or higher.
[out] yes

[in] Assess whether reported area under the dose-response curve for CC(/C=C/C(=O)NO)=C\[C@@H](C)C(=O)c1ccc(N(C)C)cc1 [Trichostatin A] (top concentration 46.0829 µM) sits at 500 or higher.
[out] no

---

tested on: SB.msgc-1; experiment: AC50 for growth inhibition (viability) (log10 M); higher = less potent; settings: SB.msgc-1 (sporadic gastric cancer)
Where a name gives a salt, the structure may show the parent alone.
Could you please mark met for values of AC50 for growth inhibition (log10 M) below -5 and not met for values at or above it?

compound | labelValue
Nc1nc(F)nc2c1ncn2[C@@H]1O[C@H](CO)[C@@H](O)[C@H]1O | met
NC(=O)C1CCCc2c1[nH]c1ccc(Cl)cc21 (configuration not stated) | not met
Cc1nn(Cc2ccccc2Cl)c(C)c1CN(C)CC(O)COc1ccc(Cl)cc1 (configuration not stated) | not met
c1ccc(CCCN2CCN(CCOC(c3ccccc3)c3ccccc3)CC2)cc1 | not met
N#CC(=C(/N)Sc1ccccc1N)/C(C#N)=C(\N)Sc1ccccc1N | not met
CN1CCC(CC1)COC2=CN=C(N=C2)C3=CC(=CC=C3)CN4/N=C(\C=C/C4=O)C5=CC(=CC=C5)C#N | met
CN(C)Cc1ccc(-c2nc3cccc4c3n2CCNC4=O)cc1 | not met
COc1ccc(F)c(F)c1C(=O)c1cnc(NC2CCN([S+](C)(=O)[O-])CC2)nc1N | met
CN1CCN(c2ccc([N+](=O)[O-])c3no[n+]([O-])c23)CC1 | not met
CO[C@@H](C(=O)N1Cc2[nH]nc(NC(=O)c3ccc(N4CCN(C)CC4)cc3)c2C1)c1ccccc1 | met

[in] Please let me know if CCC[C@H](Nc1nc(-c2ccc(NC(=O)NCC)c(OC)c2)ncc1C)c1cccnc1 [Lexibulin hydrochloride] shows AC50 for growth inhibition (log10 M) below -5.
[out] met

[in] Please let me know if CCOC(=O)c1ncn2c1CN(C)C(=O)c1cc(F)ccc1-2 shows AC50 for growth inhibition (log10 M) below -5.
[out] not met
